Source: patent US20260062463A1

- experimental.target: T1, AAV5 (adeno-associated virus 5, Assembled 60-mer capsid of VP1/VP2/VP3 (nested products of one cap gene), amine-coupled to a CM5 chip; the letters give one VP1 subunit only.)
- T1 construct: also called adeno-associated virus serotype 5
- measurement.notes: SPR, AAV amine-coupled to CM5 chip
measurement.name: koff (s⁻¹)

1) A4-C2 (VHH) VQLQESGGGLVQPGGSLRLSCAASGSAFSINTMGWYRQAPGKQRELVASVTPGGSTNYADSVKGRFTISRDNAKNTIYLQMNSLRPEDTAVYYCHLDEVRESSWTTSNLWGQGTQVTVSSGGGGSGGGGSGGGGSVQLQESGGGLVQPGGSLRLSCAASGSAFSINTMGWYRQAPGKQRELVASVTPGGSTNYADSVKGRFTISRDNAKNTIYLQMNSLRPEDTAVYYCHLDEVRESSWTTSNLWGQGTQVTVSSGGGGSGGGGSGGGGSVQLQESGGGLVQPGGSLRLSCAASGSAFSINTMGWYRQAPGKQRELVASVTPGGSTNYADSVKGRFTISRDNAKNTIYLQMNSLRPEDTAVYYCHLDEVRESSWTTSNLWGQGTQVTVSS: 0.000134
